Each item that follows carries a reported Percent Mortality.
- System: tobacco budworm (Heliothis virescens [Fabricius])
- assayProtocol: surface-treated diet test against the tobacco budworm
- Type: in vivo
- conditionNotes: tobacco budworm second instar larvae; surface-treated diet; 0.25 millimoles of candidate insecticide on the surface of the diet; five-day exposure; compared to total number of insects infested
measure: Percent Mortality (%)

1. O=C(Nc1cc(F)cc(F)c1)OC(c1ccc(C(F)(F)F)cc1)C1CCN(Cc2ccc(Oc3ccccn3)cc2)CC1 (stereo not shown) [Compound 680]	17
2. CCn1nnc(-c2ccc(CN3CCC(C(OC(=O)Nc4ccc(OC(F)(F)F)cc4)c4ccc(OC(F)(F)F)cc4)CC3)cc2)n1 (stereo not shown)	100
3. Cn1nnc(-c2ccc(CN3CCC(C(NCc4ccc([N+](=O)[O-])cc4)c4ccc(OC(F)(F)F)cc4)CC3)cc2)n1 (stereo not shown)	100
4. CCON=Cc1ccc(CN2CCC(C(OC(=O)Nc3cc(F)cc(F)c3)c3ccc(OC(F)(F)F)cc3)CC2)cc1 (stereo not shown)	100
5. CC(C)OC(=O)Nc1ccc(CN2CCC(C(OC(=O)Nc3cccc(F)c3)c3ccc(Cl)cc3)CC2)cc1 (stereo not shown)	100
6. CCn1nnc(-c2ccc(CN3CCC(C(OC(=O)Nc4cc(F)cc(F)c4)c4ccc(Cl)c(Cl)c4)CC3)cc2)n1 (stereo not shown)	100
7. Cn1nnc(-c2ccc(CN3CCC(C(NCc4ccccc4Cl)c4ccc(OC(F)(F)F)cc4)CC3)cc2)n1 (stereo not shown)	100
8. O=C(Nc1ccccc1Cl)OC(c1ccc(C(F)(F)F)cc1)C1CCN(Cc2ccc(Oc3ccccn3)cc2)CC1 (stereo not shown)	100
9. Cn1nnc(-c2ccc(CN3CCC(C(NC(=O)Nc4ccccc4Cl)c4ccc(OC(F)(F)F)cc4)CC3)cc2)n1 (stereo not shown)	100
10. O=C(Nc1ccc(F)cc1)OC(c1ccc(OC(F)(F)F)cc1)C1CCN(Cc2ccccc2)CC1 (stereo not shown)	0
